# Measurement Notes: in vivo
# Design: species or system mice
# Cond: male, NOD.Cg-Rag1tm1Mom Il2rgtm1Wjl/SzJ (NRG), mouse, iv, total radioactivity, Biodistribution: Lungs
Where a SMILES comes first, the peptide text is derived from it. Bridges are numbered along the chain shown (N, C = ends). [ ]: non-standard residue; d: D form. The star is where a group is joined. X3 = O=C(O)CN1CCN(CC(=O)O)CCN(CC(=O)N[C@@H](CS(=O)(=O)O)C(=O)N[C@@H](CCCCNC(=O)CCCc2ccc(Br)cc2)C(=O)*)CCN(CC(=O)O)CC1; 2Nal = N[C@@H](Cc1ccc2ccccc2c1)C(=O)O; Lys(iPr) = CC(C)NCCCC[C@H](N)C(=O)O
Metric: tissue uptake at 1 h (%ID/g)
Provide only the numeric value, understood in %ID/g.

-- ask Give tissue uptake at 1 h for CC(C)NCCCC[C@H](NC(=O)[C@H]1CCC(=O)N[C@@H](CCCCNC(=O)[C@H](CCCCNC(=O)CCCc2ccc(Br)cc2)NC(=O)[C@H](CS(=O)(=O)O)NC(=O)CN2CCN(CC(=O)O)CCN(CC(=O)O)CCN(CC(=O)O)CC2)C(=O)N[C@@H](Cc2ccc(O)cc2)C(=O)N[C@@H](CCCCNC(C)C)C(=O)N[C@H](CCCNC(=N)N)C(=O)N[C@@H](Cc2ccc3ccccc3c2)C(=O)N[C@H](C)C(=O)N1)C(N)=O [[^177Lu]Lu-BL34L20, metal not drawn] (K(X3)Y[Lys(iPr)][dR][2Nal][dA][dE][Lys(iPr)]-NH2; lactam N-7)
-- reply 8.78

----------
# Measurement Notes: in vivo
# Design: species or system mice
# Cond: male, NOD.Cg-Rag1tm1Mom Il2rgtm1Wjl/SzJ (NRG), mouse, iv, total radioactivity, Biodistribution: Adrenals
Where a SMILES comes first, the peptide text is derived from it. Bridges are numbered along the chain shown (N, C = ends). Side-chain parts run from the residue outwards. [ ]: non-standard residue; d: D form. The star is where a group is joined. X7 = COc1ccc(CCCC(=O)NCCCC[C@H](NC(=O)CN2CCN(CC(=O)O)CCN(CC(=O)O)CCN(CC(=O)O)CC2)C(=O)*)cc1; DOTA = O=C(O)CN1CCN(CC(=O)O)CCN(CC(=O)*)CCN(CC(=O)O)CC1; NMeLys(iPr) = CN[C@@H](CCCCNC(C)C)C(=O)O; 2Nal = N[C@@H](Cc1ccc2ccccc2c1)C(=O)O; Lys(iPr) = CC(C)NCCCC[C@H](N)C(=O)O; Cya = N[C@@H](CS(=O)(=O)O)C(=O)O
Metric: tissue uptake at 1 h
Form field: result (number plus unit)

-- ask Return value of tissue uptake at 1 h for input COc1ccc(CCCC(=O)NCCCC[C@H](NC(=O)CN2CCN(CC(=O)O)CCN(CC(=O)O)CCN(CC(=O)O)CC2)C(=O)N[C@@H](CS(=O)(=O)O)C(=O)NCCCC[C@@H]2NC(=O)CC[C@H](C(=O)N[C@@H](CCCCNC(C)C)C(N)=O)NC(=O)[C@@H](C)NC(=O)[C@H](Cc3ccc4ccccc4c3)NC(=O)[C@@H](CCCNC(=N)N)NC(=O)[C@H](CCCCNC(C)C)NC(=O)[C@H](Cc3ccc(O)cc3)NC2=O)cc1 [[68Ga]Ga-BL34L6, metal not drawn] (K([Cya-X7])Y[Lys(iPr)][dR][2Nal][dA][dE][Lys(iPr)]-NH2; lactam N-7) , no commentary.
-- reply 0.29 %ID/g

-- ask Give the value of tissue uptake at 1 h reported for the following: CC(C)NCCCC[C@H](NC(=O)[C@H]1CCC(=O)N[C@@H](CCCCNC(=O)[C@H](CS(=O)(=O)O)NC(=O)CN2CCN(CC(=O)O)CCN(CC(=O)O)CCN(CC(=O)O)CC2)C(=O)N[C@@H](Cc2ccc(O)cc2)C(=O)N(C)[C@@H](CCCCNC(C)C)C(=O)N[C@H](CCCNC(=N)N)C(=O)N[C@@H](Cc2ccc3ccccc3c2)C(=O)N[C@H](C)C(=O)N1)C(N)=O [[^68Ga]Ga-BL34N1, metal not drawn] (K([Cya-DOTA])Y[NMeLys(iPr)][dR][2Nal][dA][dE][Lys(iPr)]-NH2; lactam N-7)
-- reply 0.17 %ID/g

----------
# Measurement Notes: in vivo
# Design: species or system mice
# Cond: male, NOD.Cg-Rag1tm1Mom Il2rgtm1Wjl/SzJ (NRG), mouse, iv, total radioactivity, Biodistribution: Muscle
Where a SMILES comes first, the peptide text is derived from it. Bridges are numbered along the chain shown (N, C = ends). [ ]: non-standard residue; d: D form. The star is where a group is joined. X3 = O=C(O)CN1CCN(CC(=O)O)CCN(CC(=O)N[C@@H](CS(=O)(=O)O)C(=O)N[C@@H](CCCCNC(=O)CCCc2ccc(Br)cc2)C(=O)*)CCN(CC(=O)O)CC1; X1 = O=C(O)CN1CCN(CC(=O)O)CCN(CC(=O)N[C@@H](CS(=O)(=O)O)C(=O)N[C@@H](CCCCNC(=O)CCCc2ccc(I)cc2)C(=O)*)CCN(CC(=O)O)CC1; 2Nal = N[C@@H](Cc1ccc2ccccc2c1)C(=O)O; Lys(iPr) = CC(C)NCCCC[C@H](N)C(=O)O
Metric: tissue uptake at 24 h
Form entry: enter the amount, then its unit.

Compound	Metric	Measured Value
CC(C)NCCCC[C@H](NC(=O)[C@H]1CCC(=O)N[C@@H](CCCCNC(=O)[C@H](CCCCNC(=O)CCCc2ccc(I)cc2)NC(=O)[C@H](CS(=O)(=O)O)NC(=O)CN2CCN(CC(=O)O)CCN(CC(=O)O)CCN(CC(=O)O)CC2)C(=O)N[C@@H](Cc2ccc(O)cc2)C(=O)N[C@@H](CCCCNC(C)C)C(=O)N[C@H](CCCNC(=N)N)C(=O)N[C@@H](Cc2ccc3ccccc3c2)C(=O)N[C@H](C)C(=O)N1)C(N)=O [[^177Lu]Lu-BL34L11, metal not drawn] (K(X1)Y[Lys(iPr)][dR][2Nal][dA][dE][Lys(iPr)]-NH2; lactam N-7)	tissue uptake at 24 h	0.76 %ID/g

We next turn to a different compound, shown below.
-- ask Return tissue uptake at 24 h (reported value) for this compound: CC(C)NCCCC[C@H](NC(=O)[C@H]1CCC(=O)N[C@@H](CCCCNC(=O)[C@H](CCCCNC(=O)CCCc2ccc(Br)cc2)NC(=O)[C@H](CS(=O)(=O)O)NC(=O)CN2CCN(CC(=O)O)CCN(CC(=O)O)CCN(CC(=O)O)CC2)C(=O)N[C@@H](Cc2ccc(O)cc2)C(=O)N[C@@H](CCCCNC(C)C)C(=O)N[C@H](CCCNC(=N)N)C(=O)N[C@@H](Cc2ccc3ccccc3c2)C(=O)N[C@H](C)C(=O)N1)C(N)=O [[^177Lu]Lu-BL34L20, metal not drawn] (K(X3)Y[Lys(iPr)][dR][2Nal][dA][dE][Lys(iPr)]-NH2; lactam N-7)
-- reply 0.27 %ID/g

----------
# Measurement Notes: in vivo
# Set-up: species or system mice
# Cond: male, NOD.Cg-Rag1tm1Mom Il2rgtm1Wjl/SzJ (NRG), mouse, iv, total radioactivity, Ratio Tumor-to-Blood
Where a SMILES comes first, the peptide text is derived from it. Bridges are numbered along the chain shown (N, C = ends). [ ]: non-standard residue; d: D form. The star is where a group is joined. X1 = O=C(O)CN1CCN(CC(=O)O)CCN(CC(=O)N[C@@H](CS(=O)(=O)O)C(=O)N[C@@H](CCCCNC(=O)CCCc2ccc(I)cc2)C(=O)*)CCN(CC(=O)O)CC1; 2Nal = N[C@@H](Cc1ccc2ccccc2c1)C(=O)O; Lys(iPr) = CC(C)NCCCC[C@H](N)C(=O)O
Metric: tissue to tissue ratio at 3 h
# answer = number (no unit)

-- ask Answer with reported tissue to tissue ratio at 3 h of CC(C)NCCCC[C@H](NC(=O)[C@H]1CCC(=O)N[C@@H](CCCCNC(=O)[C@H](CCCCNC(=O)CCCc2ccc(I)cc2)NC(=O)[C@H](CS(=O)(=O)O)NC(=O)CN2CCN(CC(=O)O)CCN(CC(=O)O)CCN(CC(=O)O)CC2)C(=O)N[C@@H](Cc2ccc(O)cc2)C(=O)N[C@@H](CCCCNC(C)C)C(=O)N[C@H](CCCNC(=N)N)C(=O)N[C@@H](Cc2ccc3ccccc3c2)C(=O)N[C@H](C)C(=O)N1)C(N)=O [[^68Ga]Ga-BL34L11, metal not drawn] (K(X1)Y[Lys(iPr)][dR][2Nal][dA][dE][Lys(iPr)]-NH2; lactam N-7)
-- reply 0.85

----------
Measured tissue uptake at 120 h values are reported for all entries that follow.
# Measurement Notes: in vivo
# Parameters: species or system mice
# Cond: male, NOD.Cg-Rag1tm1Mom Il2rgtm1Wjl/SzJ (NRG), mouse, iv, total radioactivity, Biodistribution: Bone
Where a SMILES comes first, the peptide text is derived from it. Bridges are numbered along the chain shown (N, C = ends). [ ]: non-standard residue; d: D form. The star is where a group is joined. X3 = O=C(O)CN1CCN(CC(=O)O)CCN(CC(=O)N[C@@H](CS(=O)(=O)O)C(=O)N[C@@H](CCCCNC(=O)CCCc2ccc(Br)cc2)C(=O)*)CCN(CC(=O)O)CC1; X1 = O=C(O)CN1CCN(CC(=O)O)CCN(CC(=O)N[C@@H](CS(=O)(=O)O)C(=O)N[C@@H](CCCCNC(=O)CCCc2ccc(I)cc2)C(=O)*)CCN(CC(=O)O)CC1; 2Nal = N[C@@H](Cc1ccc2ccccc2c1)C(=O)O; Lys(iPr) = CC(C)NCCCC[C@H](N)C(=O)O

-- ask Input CC(C)NCCCC[C@H](NC(=O)[C@H]1CCC(=O)N[C@@H](CCCCNC(=O)[C@H](CCCCNC(=O)CCCc2ccc(I)cc2)NC(=O)[C@H](CS(=O)(=O)O)NC(=O)CN2CCN(CC(=O)O)CCN(CC(=O)O)CCN(CC(=O)O)CC2)C(=O)N[C@@H](Cc2ccc(O)cc2)C(=O)N[C@@H](CCCCNC(C)C)C(=O)N[C@H](CCCNC(=N)N)C(=O)N[C@@H](Cc2ccc3ccccc3c2)C(=O)N[C@H](C)C(=O)N1)C(N)=O [[^177Lu]Lu-BL34L11, metal not drawn] (K(X1)Y[Lys(iPr)][dR][2Nal][dA][dE][Lys(iPr)]-NH2; lactam N-7) , output reported tissue uptake at 120 h.
-- reply 0.29 %ID/g

-- ask Using the record for CC(C)NCCCC[C@H](NC(=O)[C@H]1CCC(=O)N[C@@H](CCCCNC(=O)[C@H](CCCCNC(=O)CCCc2ccc(Br)cc2)NC(=O)[C@H](CS(=O)(=O)O)NC(=O)CN2CCN(CC(=O)O)CCN(CC(=O)O)CCN(CC(=O)O)CC2)C(=O)N[C@@H](Cc2ccc(O)cc2)C(=O)N[C@@H](CCCCNC(C)C)C(=O)N[C@H](CCCNC(=N)N)C(=O)N[C@@H](Cc2ccc3ccccc3c2)C(=O)N[C@H](C)C(=O)N1)C(N)=O [[^177Lu]Lu-BL34L20, metal not drawn] (K(X3)Y[Lys(iPr)][dR][2Nal][dA][dE][Lys(iPr)]-NH2; lactam N-7) , state its measured tissue uptake at 120 h.
-- reply 0.3 %ID/g

Ref: patent US20250242064A1
